- subject.of.test: mouse melanocortin-4 receptor (mouse, UniProt P56450 1-332)
- Sequence (P56450 whole entry): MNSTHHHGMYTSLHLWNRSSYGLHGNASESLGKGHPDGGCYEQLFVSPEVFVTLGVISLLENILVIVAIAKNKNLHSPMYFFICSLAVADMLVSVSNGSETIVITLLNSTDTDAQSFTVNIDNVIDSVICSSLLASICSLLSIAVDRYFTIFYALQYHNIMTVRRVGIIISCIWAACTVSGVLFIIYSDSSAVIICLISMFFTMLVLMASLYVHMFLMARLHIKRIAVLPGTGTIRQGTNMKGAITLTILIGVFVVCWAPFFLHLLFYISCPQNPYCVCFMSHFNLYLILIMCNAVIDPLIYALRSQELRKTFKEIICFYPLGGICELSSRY
- method.description: cell-based or functional assay
Bridges are numbered along the chain shown (N, C = ends). Where no end group is shown, it is not given here. [ ]: non-standard residue; d: D form. Nle = CCCC[C@H](N)C(=O)O; Dap = NC[C@H](N)C(=O)O

binder: YDPXRWNAFXY (Asp-Dpr side chain lactam bridge; Dpr; DPhe; C-terminal amide (amide resin)) [SEQ ID NO:28 (Tyr-c[Asp-Pro-DPhe-Arg-Trp-Asn-Ala-Phe-Dpr]-Tyr)]
sign: =
EC50 (agonist) / µM: 0.00063

binder: YDHXRXNAFXY (Asp-Dpr side chain lactam bridge; Dpr; DPhe; Nal(2′); C-terminal amide (amide resin)) [SEQ ID NO:39 (Tyr-c[Asp-His-DPhe-Arg-Nal(2′)-Asn-Ala-Phe-Dpr]-Tyr)]
sign: =
EC50 (agonist) / µM: 0.00027

binder: Ac-[Nle]DHR[dF]FK-NH2 (lactam 2-7) [SEQ ID NO:22 (Ac-Nle-c[Asp-His-Arg-DPhe-Phe-Lys])]
sign: =
EC50 (agonist) / µM: 5

binder: YDHXKWNAFXY (Asp-Dpr side chain lactam bridge; Dpr; DPhe; C-terminal amide (amide resin)) [SEQ ID NO:37 (Tyr-c[Asp-His-DPhe-Lys-Trp-Asn-Ala-Phe-Dpr]-Tyr)]
sign: =
EC50 (agonist) / µM: 8.6

binder: Ac-SYS[Nle]EHAAAGKPV-NH2 (SMILES CCCC[C@H](NC(=O)[C@H](CO)NC(=O)[C@H](Cc1ccc(O)cc1)NC(=O)[C@H](CO)NC(C)=O)C(=O)N[C@@H](CCC(=O)O)C(=O)N[C@@H](Cc1c[nH]cn1)C(=O)N[C@@H](C)C(=O)N[C@@H](C)C(=O)N[C@@H](C)C(=O)NCC(=O)N[C@@H](CCCCN)C(=O)N1CCC[C@H]1C(=O)N[C@H](C(N)=O)C(C)C) [SEQ ID NO:12 (Ac-Ser-Tyr-Ser-Nle-Glu-His-Ala-Ala-Ala-Gly-Lys-Pro-Val)]
sign: >
EC50 (agonist) / µM: 100

binder: Ac-SYS[Nle]EHRFFGKPV-NH2 [SEQ ID NO:15 (Ac-Ser-Tyr-Ser-Nle-Glu-His-Arg-Phe-Phe-Gly-Lys-Pro-Val)]
sign: =
EC50 (agonist) / µM: 0.93

binder: YDHXRPNAFXY (Asp-Dpr side chain lactam bridge; Dpr; DPhe; C-terminal amide (amide resin)) [SEQ ID NO:38 (Tyr-c[Asp-His-DPhe-Arg-Pro-Asn-Ala-Phe-Dpr]-Tyr)]
sign: =
EC50 (agonist) / µM: 7.2

binder: YDHXRWNAFXY (Asp-Dpr side chain lactam bridge; Dpr; DBip; C-terminal amide (amide resin)) [SEQ ID NO:35 (Tyr-c[Asp-His-DBip-Arg-Trp-Asn-Ala-Phe-Dpr]-Tyr)]
sign: =
EC50 (agonist) / µM: 0.00057

binder: Ac-[Nle]DHRF[dF]K-NH2 (lactam 2-7; SMILES CCCC[C@H](NC(C)=O)C(=O)N[C@H]1CC(=O)NCCCC[C@@H](C(N)=O)NC(=O)[C@@H](Cc2ccccc2)NC(=O)[C@H](Cc2ccccc2)NC(=O)[C@H](CCCNC(=N)N)NC(=O)[C@H](Cc2c[nH]cn2)NC1=O) [SEQ ID NO:23 (Ac-Nle-c[Asp-His-Arg-Phe-DPhe-Lys])]
sign: >
EC50 (agonist) / µM: 100

binder: YDHXRXNAFXY (Asp-Dpr side chain lactam bridge; Dpr; DPhe; DNal(2′); C-terminal amide (amide resin)) [SEQ ID NO:40 (Tyr-c[Asp-His-DPhe-Arg-DNal(2′)-Asn-Ala-Phe-Dpr]-Tyr)]
sign: =
EC50 (agonist) / µM: 0.00067

binder: YDHARWNAF[Dap]Y-NH2 (lactam 2-10; N-terminus assumed; SMILES C[C@@H]1NC(=O)[C@H](CC(N)=O)NC(=O)[C@H](Cc2c[nH]c3ccccc23)NC(=O)[C@H](CCCNC(=N)N)NC(=O)[C@H](C)NC(=O)[C@H](Cc2c[nH]cn2)NC(=O)[C@@H](NC(=O)[C@@H](N)Cc2ccc(O)cc2)CC(=O)NC[C@@H](C(=O)N[C@@H](Cc2ccc(O)cc2)C(N)=O)NC(=O)[C@H](Cc2ccccc2)NC1=O) [SEQ ID NO:25 (Tyr-c[Asp-His-Ala-Arg-Trp-Asn-Ala-Phe-Dpr]-Tyr)]
sign: =
EC50 (agonist) / µM: 14.7

binder: YDAAANAF[Dap]Y-NH2 (lactam 2-9; N-terminus assumed; SMILES C[C@@H]1NC(=O)[C@H](C)NC(=O)[C@@H](NC(=O)[C@@H](N)Cc2ccc(O)cc2)CC(=O)NC[C@@H](C(=O)N[C@@H](Cc2ccc(O)cc2)C(N)=O)NC(=O)[C@H](Cc2ccccc2)NC(=O)[C@H](C)NC(=O)[C@H](CC(N)=O)NC(=O)[C@H](C)NC1=O) [SEQ ID NO:2 (Tyr-c[Asp-Ala-Ala-Ala-Asn-Ala-Phe-Dpr]-Tyr)]
sign: >
EC50 (agonist) / µM: 100

binder: YDFXRWNAFXY (Asp-Dpr side chain lactam bridge; Dpr; DPhe; C-terminal amide (amide resin)) [SEQ ID NO:29 (Tyr-c[Asp-Phe-DPhe-Arg-Trp-Asn-Ala-Phe-Dpr]-Tyr)]
sign: =
EC50 (agonist) / µM: 0.00064

binder: Ac-[Nle]DHAAAK-NH2 (lactam 2-7; SMILES CCCC[C@H](NC(C)=O)C(=O)N[C@H]1CC(=O)NCCCC[C@@H](C(N)=O)NC(=O)[C@H](C)NC(=O)[C@H](C)NC(=O)[C@H](C)NC(=O)[C@H](Cc2c[nH]cn2)NC1=O) [SEQ ID NO:19 (Ac-Nle-c[Asp-His-Ala-Ala-Ala-Lys])]
sign: >
EC50 (agonist) / µM: 100

binder: YDHXPWNAFXY (Asp-Dpr side chain lactam bridge; Dpr; DPhe; C-terminal amide (amide resin)) [SEQ ID NO:36 (Tyr-c[Asp-His-DPhe-Pro-Trp-Asn-Ala-Phe-Dpr]-Tyr)]
sign: =
EC50 (agonist) / µM: 4.3

binder: Ac-[Nle]DH[dR]FFK-NH2 (lactam 2-7) [SEQ ID NO:21 (Ac-Nle-c[Asp-His-DArg-Phe-Phe-Lys])]
sign: >
EC50 (agonist) / µM: 100

binder: Ac-SYS[Nle]EHFFRGKPV-NH2 (SMILES CCCC[C@H](NC(=O)[C@H](CO)NC(=O)[C@H](Cc1ccc(O)cc1)NC(=O)[C@H](CO)NC(C)=O)C(=O)N[C@@H](CCC(=O)O)C(=O)N[C@@H](Cc1c[nH]cn1)C(=O)N[C@@H](Cc1ccccc1)C(=O)N[C@@H](Cc1ccccc1)C(=O)N[C@@H](CCCNC(=N)N)C(=O)NCC(=O)N[C@@H](CCCCN)C(=O)N1CCC[C@H]1C(=O)N[C@H](C(N)=O)C(C)C) [SEQ ID NO:14 (Ac-Ser-Tyr-Ser-Nle-Glu-His-Phe-Phe-Arg-Gly-Lys-Pro-Val)]
sign: >
EC50 (agonist) / µM: 100

binder: YDHXAWNAFXY (Asp-Dpr side chain lactam bridge; Dpr; DPhe; C-terminal amide (amide resin)) [SEQ ID NO:26 (Tyr-c[Asp-His-DPhe-Ala-Trp-Asn-Ala-Phe-Dpr]-Tyr)]
sign: =
EC50 (agonist) / µM: 0.0325

binder: YDXXRWNAFXY (Asp-Dpr side chain lactam bridge; Dpr; (rac)Atc; DPhe; C-terminal amide (amide resin)) [SEQ ID NO:30 (Tyr-c[Asp-(rac)Atc-DPhe-Arg-Trp-Asn-Ala-Phe-Dpr]-Tyr)]
sign: =
EC50 (agonist) / µM: 0.115
